Structures can show the parent of a compound that is named as a salt.
Record: Ki reported on UniProt:P50406.
Sequence (P50406 whole entry): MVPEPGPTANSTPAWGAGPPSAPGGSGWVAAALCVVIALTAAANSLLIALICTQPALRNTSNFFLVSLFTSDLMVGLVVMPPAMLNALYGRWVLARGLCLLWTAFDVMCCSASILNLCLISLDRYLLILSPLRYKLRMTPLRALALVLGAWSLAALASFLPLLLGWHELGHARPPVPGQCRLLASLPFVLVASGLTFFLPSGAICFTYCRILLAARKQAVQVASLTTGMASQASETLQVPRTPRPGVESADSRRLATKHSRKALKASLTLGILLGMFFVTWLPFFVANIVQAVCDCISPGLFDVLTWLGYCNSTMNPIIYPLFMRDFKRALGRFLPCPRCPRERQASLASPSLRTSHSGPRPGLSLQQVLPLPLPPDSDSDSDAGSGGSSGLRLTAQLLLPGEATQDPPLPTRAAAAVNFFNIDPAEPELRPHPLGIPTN
measure: Ki

>>> reading("O=S(=O)(c1cccc(F)c1)c1cnc2c(N3CCC(O)CC3)cccc2c1 [Example 9]")
"< 10 nM"
>>> reading("COc1ccc(C)cc1S(=O)(=O)c1cnc2c(N3CCC(O)CC3)cccc2c1 [Example 35]")
"10 to 100 nM"
>>> reading("O=S(=O)(c1ccccc1)c1cnc2c(N3C[C@@H](O)[C@H](O)C3)cccc2c1 [Example 45]")
"< 10 nM"
>>> reading("O=S(=O)(c1cnc2c(F)cccc2c1)c1ccccc1N1CCC(O)CC1 [Example 25]")
"10 to 100 nM"
>>> reading("O=S(=O)(c1cccc(F)c1)c1cnc2c(N3CCC[C@@H](O)C3)cccc2c1 [Example 20]")
"< 10 nM"
>>> reading("COc1ccccc1S(=O)(=O)c1cnc2c(N3CC(O)C3)cccc2c1 [Example 39]")
"10 to 100 nM"
>>> reading("O=C(O)[C@@H]1CCN(c2cccc3cc(S(=O)(=O)c4cccc(C(F)(F)F)c4)cnc23)C1 [Example 12]")
"10 to 100 nM"
>>> reading("O=S(=O)(c1cccc(F)c1)c1cnc2c(N3CC[C@@H](O)C3)cccc2c1 [Example 33]")
"< 10 nM"
>>> reading("O=S(=O)(c1cccc(C(F)(F)F)c1)c1cnc2c(N3CCC(O)CC3)cccc2c1 [Example 1]")
"< 10 nM"
>>> reading("CC1(O)CCN(c2cccc3cc(S(=O)(=O)c4cccc(C(F)(F)F)c4)cnc23)CC1 [Example 7, Hydrochloride]")
"< 10 nM"
>>> reading("O=S(=O)(c1ccccc1)c1cnc2c(N3C[C@H](O)C[C@H](O)C3)cccc2c1 [Example 36]")
"< 10 nM"
>>> reading("COc1cccc(S(=O)(=O)c2cnc3c(N4CCC(O)CC4)cccc3c2)c1 [Example 13]")
"< 10 nM"
>>> reading("O=C(O)[C@H]1CCN(c2cccc3cc(S(=O)(=O)c4cccc(C(F)(F)F)c4)cnc23)C1 [Example 11]")
"10 to 100 nM"
>>> reading("O=C(O)C1CCCN(c2cccc3cc(S(=O)(=O)c4cccc(C(F)(F)F)c4)cnc23)C1 (centres unmarked) [Example 6]")
"10 to 100 nM"
>>> reading("O=S(=O)(c1ccccc1)c1cnc2c(N3CC[C@H](O)C3)cccc2c1 [Example 30]")
"< 10 nM"
>>> reading("O=S(=O)(c1cccc(F)c1)c1cnc2c(N3CC(O)C3)cccc2c1 [Example 10]")
"< 10 nM"
>>> reading("Cc1ccc(O)c(S(=O)(=O)c2cnc3c(N4CCC(O)CC4)cccc3c2)c1 [Example 28]")
"10 to 100 nM"

Values were extracted from patent US10160744B2.
